Entries and their measured combination Emax follow.
test system: OV-56 (Ovarian Carcinoma); experiment: combination Emax (second highest fraction inhibited in the dose matrix, 72 h); higher = more inhibition; extreme values may be limits of the assay
Please respond with just the number, no unit label.

Worked examples, 2 molecules total:
Cn1cnc2c(F)c(Nc3ccc(Br)cc3Cl)c(C(=O)NOCCO)cc21 [Selumetinib] + CC(C)n1c(=O)n(C)c2cnc3cc(F)c(-c4ccc(OCCCN5CCCCC5)nc4)cc3c21 [AZD1390] (first compound max 10 µM, 7x7, partner max 0.3 µM) : 0.133
Cc1c2c(nn1C)CSCc1cc(n(C)n1)CSc1cc(c3ccccc3c1)OCCCc1c(C(=O)O)n(C)c3c-2c(Cl)ccc13 [AZD5991] + C[C@@H](Nc1cc(F)cc(F)c1)c1cc(C(=O)N(C)C)cc2c(=O)cc(N3CCOCC3)oc12 [AZD8186] (first compound max 1 µM, 7x7, partner max 3 µM) : 0.212

Consider the additional molecule presented here.
Problem: Look up combination Emax of CC1(C)CCC(CN2CCN(c3ccc(C(=O)NS(=O)(=O)c4ccc(NCC5CCOCC5)c([N+](=O)[O-])c4)c(Oc4cnc5[nH]ccc5c4)c3)CC2)=C(c2ccc(Cl)cc2)C1 [Venetoclax] + CCN(CCO)CCCOc1ccc2c(Nc3cc(CC(=O)Nc4cccc(F)c4)[nH]n3)ncnc2c1 [AZD2811] (first compound max 1 µM, 7x7, partner max 1 µM) and report it.
Result: 0.195
